meta.source: PubChem BioAssay AID1963974

Test system: 648629-189-R-J1-PDC spheroids with HUVEC/MSC, viability
Assay: Anticancer human tumor 648629-189-R-J1-PDC patient-derived bladder carcinoma cell line growth inhibition [PI3K]
Details: second compound 1 µM; first compound 0.316 µM; hits give low values
// NB: equality with 60% counts as Condition not met; only viability, T/C strictly below is Condition met

Use these answered entries as a reference point.
{"MOLECULE": "C#Cc1c(F)ccc2cc(O)cc(-c3ncc4c(N5CC6CCC(C5)N6)nc(OCC56CCCN5CC(F)C6)nc4c3F)c12 (stereo not given) + Cc1nc(NC(=O)N2CCCC2C(N)=O)sc1-c1ccnc(C(C)(C)C(F)(F)F)c1", "ASSIGNED_CATEGORY": "Condition not met"}
{"MOLECULE": "CNC(=O)c1ccc(N2C(=S)N(c3ccc(C#N)c(C(F)(F)F)c3)C(=O)C2(C)C)cc1F + COc1c(OCCCN2CCOCC2)ccc2c3n(c(=NC(=O)c4cnc(N)nc4)nc12)CCN3", "ASSIGNED_CATEGORY": "Condition met"}
{"MOLECULE": "Cn1ncc(Cl)c1-c1cc(C(=O)NC(CN)Cc2cccc(F)c2)sc1Cl (stereo not given) + Cc1nc(NC(=O)N2CCCC2C(N)=O)sc1-c1ccnc(C(C)(C)C(F)(F)F)c1", "ASSIGNED_CATEGORY": "Condition met"}

Task item: Problem: For the molecule C[C@@H](NC(=O)c1ncnc(N)c1Cl)c1ncc(C(=O)Nc2cc(C(F)(F)F)c(Cl)cn2)s1 + CC(Nc1ccc2c(c1)OCCn1cc(N3C(=O)OCC3C(F)F)nc1-2)C(N)=O , is viability, T/C under 60%?
Reply: Condition not met

====

Test system: 648629-189-R-J1-PDC spheroids with HUVEC/MSC, viability
Experiment: Anticancer human tumor 648629-189-R-J1-PDC cell line growth inhibition [PI3K];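 note: spheroids exposed to agents for seven days before reading; percent of vehicle control luminescence where 100% = DMSO treated spheroids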
Details: second compound 3.16 µM; first compound 10 µM; hits give low values
Description: Combinatorial screen of targeted agents with the PI3K inhibitors inavolisib, alpelisib, duvelisib, and copanlisib in multi-cell type tumor spheroids A high-throughput screen of multi-cell type tumor spheroids was designed to identify active combinations of targeted small molecules and PI3K pathway inhibitors. […] Compounds. […] If the clinical Cmax for an agent had not been determined, the highest concentration tested was 10 microM. […]
Could you please report measured viability, T/C for the items listed next?
Numbers only, in %.

{"MOLECULE": "Cn1ncc(Cl)c1-c1cc(C(=O)NC(CN)Cc2cccc(F)c2)sc1Cl (centres undefined) + Cc1nc(NC(=O)N2CCCC2C(N)=O)sc1-c1ccnc(C(C)(C)C(F)(F)F)c1", "RESULT_UNITS": "%", "viability, T/C": 1.25}
{"MOLECULE": "C#Cc1c(F)ccc2cc(O)cc(-c3ncc4c(N5CC6CCC(C5)N6)nc(OCC56CCCN5CC(F)C6)nc4c3F)c12 (centres undefined) + CC(Nc1ncnc2nc[nH]c12)c1cc2cccc(Cl)c2c(=O)n1-c1ccccc1", "RESULT_UNITS": "%", "viability, T/C": 88.1}
{"MOLECULE": "C[C@@H](NC(=O)c1ncnc(N)c1Cl)c1ncc(C(=O)Nc2cc(C(F)(F)F)c(Cl)cn2)s1 + CC(Nc1ncnc2nc[nH]c12)c1cc2cccc(Cl)c2c(=O)n1-c1ccccc1", "RESULT_UNITS": "%", "viability, T/C": 104}
{"MOLECULE": "Cn1ncc(Cl)c1-c1cc(C(=O)NC(CN)Cc2cccc(F)c2)sc1Cl (centres undefined) + CC(Nc1ncnc2nc[nH]c12)c1cc2cccc(Cl)c2c(=O)n1-c1ccccc1", "RESULT_UNITS": "%", "viability, T/C": 7.12}
{"MOLECULE": "C#Cc1c(F)ccc2cc(O)cc(-c3ncc4c(N5CC6CCC(C5)N6)nc(OCC56CCCN5CC(F)C6)nc4c3F)c12 (centres undefined) + Cc1nc(NC(=O)N2CCCC2C(N)=O)sc1-c1ccnc(C(C)(C)C(F)(F)F)c1", "RESULT_UNITS": "%", "viability, T/C": 54.9}
{"MOLECULE": "CC1(C)CCC(Nc2ncc(C(F)(F)F)c(-c3c[nH]c4c(P(C)(C)=O)c(C#N)ccc34)n2)CN1 (centres undefined) + Cc1nc(NC(=O)N2CCCC2C(N)=O)sc1-c1ccnc(C(C)(C)C(F)(F)F)c1", "RESULT_UNITS": "%", "viability, T/C": 1.62}
{"MOLECULE": "C=CC(=O)N1CCN(c2nc(=O)n(-c3c(C)ccnc3C(C)C)c3nc(-c4c(O)cccc4F)c(F)cc23)C(C)C1 (centres undefined) + Cc1nc(NC(=O)N2CCCC2C(N)=O)sc1-c1ccnc(C(C)(C)C(F)(F)F)c1", "RESULT_UNITS": "%", "viability, T/C": 70.8}
{"MOLECULE": "CNC(=O)c1ccc(N2C(=S)N(c3ccc(C#N)c(C(F)(F)F)c3)C(=O)C2(C)C)cc1F + CC(Nc1ncnc2nc[nH]c12)c1cc2cccc(Cl)c2c(=O)n1-c1ccccc1", "RESULT_UNITS": "%", "viability, T/C": 90.8}

Task item: Reported viability, T/C for Cn1nccc1Nc1nccc(-c2ccn(C(CO)c3ccc(Cl)c(F)c3)c(=O)c2)n1 (centres undefined) + Cc1nc(NC(=O)N2CCCC2C(N)=O)sc1-c1ccnc(C(C)(C)C(F)(F)F)c1 : what is it?
Reply: 67.1
